Consider the following compounds; for each one, report its INHIBITION.
test system: Plasmodium berghei; test: Screen against P. berghei liver stage (PbLuc), transformed with Luciferase, at 2uM; assay type: functional, HepG2; settings: tested at 2 uM
The whole screen tested about 68,000 compounds, of which about 2,700 (4%) showed an effect of 50% or more. Only a selection was taken, and strong results are over-represented in it overall.
State the answer as a number, implicitly in %.

So, CCC(CC)c1cc(CNC(=O)N2CCC[C@@H]2CO)on1 ? Its INHIBITION was -1.89

INHIBITION reported for this compound CN1CC(=O)N(c2cccc(F)c2)CC12CCN(S(=O)(=O)C1CC1)C2 (stereo not drawn) : -12.36

Briefly, INHIBITION measured for CNC(=O)CN(C)c1cncc(OCc2ccccc2)n1 : -22.24

Measured INHIBITION, Cc1cc(-c2cc(S(=O)(=O)N3C[C@H](C4CC4)[C@@H](N)C3)c(C)s2)on1 : 14.95

INHIBITION reading for Cc1nc(C(C)C)sc1C(C)N(C)C(=O)c1ccc(=O)n(C)c1 (stereo not drawn) : -11.76

Record summary for CCc1nccn1C1CCCN(C(=O)c2ccnc(C)n2)C1 (stereo not drawn) : reported INHIBITION = 20.53

Lab note: measured INHIBITION of CCc1noc(C(C)N2CCN(Cc3cnc(C)cn3)CC2)n1 (stereo not drawn) was -1.29

Record Cc1cc2nc(C(C)C)cc(N(C)CC3CCN(C(C)C)C3)n2n1 (stereo not drawn) , field INHIBITION: 5.93

Kindly note the recorded INHIBITION for O=C(NCCOc1ccccc1)NCC(O)c1cccs1 (stereo not drawn) , which is -85.29

Reported INHIBITION ( O=C1NC2(CCN(Cc3ccccc3Cl)CC2)CC1c1ccccc1 (stereo not drawn) ) = 5.92

The compound listed as O[C@@H]1CC(CNCC2CCCC2)(COc2cccnc2)C[C@@H]1O (stereo partly drawn) shows INHIBITION equal to 42.64

According to the records, this compound COc1ccc(CNC(C)c2ccc3[nH]c(=O)[nH]c3c2)cc1 (stereo not drawn) displays INHIBITION of 3.9

Data point: Cc1c(NCc2ccc(C#N)cc2)cccc1S(=O)(=O)NC1CC1 ; INHIBITION = 21.14

INHIBITION in this record for NC(=O)CCSc1ccccc1NCc1ccc(Cl)s1 : 22.75

The compound identified as COc1cc(CNC(C)c2cccc(Cl)c2)cc(OC)c1OC (stereo not drawn) registered its INHIBITION at 27.88

Just so you know, measured INHIBITION for Cc1ccc(CN2CC3(CCN(C(=O)C4CC4)CC3)CC2C(=O)O)o1 (stereo not drawn) came out at 15.46

Item: CC1(C)[C@@H]2CC=C(CN3CCCn4nc(C(=O)O)cc4C3)[C@H]1C2 | INHIBITION: -17.07

Form field INHIBITION, entry CC(NCc1ccc(F)cc1)c1ccc2[nH]c(=O)[nH]c2c1 (stereo not drawn) : -32.84

Measured INHIBITION, CCc1nc(CN(C(C)=O)C2CCN(CCc3ccncc3)C2)no1 (stereo not drawn) : -21.22

The recorded INHIBITION for entry Cc1nn(C)c(Cl)c1C1CCCN1CC(=O)NCc1ccco1 (stereo not drawn) equals 33.61

The compound identified as Fc1cnc(N2CCn3c(CN4CCCC4)nnc3C2)nc1 registered its INHIBITION at -55.08

Record CC1(C)[C@@H]2CC=C(CN3CCCn4nc(C(=O)NCCO)cc4C3)[C@H]1C2 , field INHIBITION: 53.17

INHIBITION measured on Cn1cc(C(=O)N2CCN(Cc3cscn3)CC2)ccc1=O = -15.08
